Tested on: KB-3-1
assay_info: Cytotoxic Profiling of Annotated Libraries Using Quantitative High-Throughput Screening (AID 1296008); further: on the % scale 0 is the no-effect control and ±100 the full control effect; nearly all actives have a fitted effect of over 60% in size
assay_setup: Five cell lines viability, CellTiter-Glo ATP luminescence, 48-72 h; hits give low values
Records with an inconclusive call do not appear.
max response listing for selected compounds.
Give your result in % as a bare value.

compound=FC(F)(F)c1cc(C(F)(F)F)c2ccc3nc(-c4nnco4)cn3c2n1 readout_name="max response" readout_units=% numeric_readout=-10
compound=COc1cc(C/C(=C/NC(C)=O)N(CC(=O)Cc2ccccc2)C(C)=O)cc2c1OCO2 readout_name="max response" readout_units=% numeric_readout=7.98
compound="CC1CCC2(C(=O)OC3OC(COC4OC(CO)C(O)C(O)C4O)C(O)C(O)C3O)CCC3(C)C(=CCC4C5(C)CCC(O)C(C)(C(=O)O)C5CCC43C)C2C1(C)O (stereo not given)" readout_name="max response" readout_units=% numeric_readout=0.532

For the compound shown here, CCC[C@@H]1C[C@@H](C(=O)N[C@H](C(C)Cl)[C@H]2O[C@H](SC)[C@H](O)[C@@H](O)[C@H]2O)N(C)C1 (stereo not given in full) , give the reported max response.
7.07

For the compound shown here, C=C1CCC2(OC1)OC1CC3C4CC=C5CC(O)CC(O[C@@H]6OC[C@@H](O)[C@H](O)[C@H]6O)C5(C)C4CCC3(C)C1(O)C2C (stereo not given in full) , give the reported max response.
-0.359

* * *

system_name: Luciferin 4-monooxygenase (Photinus pyralis)
assay_info: Primary firefly luciferase (FLuc) qHTS assay for identification of artifact compounds. (AID 1845220); further: nearly all actives have a fitted effect of over 60% in size;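 on activity change, negative = inhibition: plate controls were DMSO vehicle for no effect and no enzyme for full effect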
assay_setup: purified firefly luciferase, luminescence, 5 min; series mostly up to 54.1 µM
Description: PI: Alexander Tropsha Ph.D. UNC Eshelman School of Pharmacy University of North Carolina, Chapel Hill, North Carolina Hits from high-throughput screening (HTS) of chemical libraries are often false positives due to their interference with the assay detection technology. […] Using these curated datasets, we developed and validated several Quantitative Structure-Interference Relationship (QSIR) models to predict nuisance behavior. […] 6; Detection; Luminescence, ViewLux microplate reader. […]
Calls of active or inactive are those of the source. Calls come from the whole dose curve; as a rule, active = well fitted inhibition curve with a large enough effect; inconclusive = small, poorly fitted or top-dose-only effect; inactive = flat fitted curve, though single readings scatter.
readout_name: activity change, negative = inhibition

Field: example entries. Status: answers known.
compound="CC1CC(O)CC(C)(C)C1(O)CCO (centres undefined)" system_name="Luciferin 4-monooxygenase (Photinus pyralis)" readout_name="activity change, negative = inhibition" result=inactive
compound=COc1cc2c(cc1OC)CN(C(=O)[C@@H](NCc1ccncc1)C(C)(C)C)CC2 system_name="Luciferin 4-monooxygenase (Photinus pyralis)" readout_name="activity change, negative = inhibition" result=inactive
compound="COc1ccc(C(OC2OC(CO)C(O)C(O)C2O)C(C)O)cc1 (centres undefined)" system_name="Luciferin 4-monooxygenase (Photinus pyralis)" readout_name="activity change, negative = inhibition" result=inactive
compound="C[C@@H]1O[C@@H](O[C@H]2[C@H](O[C@H]3[C@H](O[C@H]4CC[C@@]5(C)C(CC[C@]6(C)C5CC=C5[C@@H]7CC(C)(C(=O)O)C[C@@H](O)[C@]7(C)CC[C@]56C)[C@@]4(C)CO)O[C@H](C(=O)O)[C@@H](O)[C@@H]3O)O[C@H](CO)[C@H](O)[C@@H]2O)[C@H](O)[C@H](O)[C@H]1O (some centres undefined)" system_name="Luciferin 4-monooxygenase (Photinus pyralis)" readout_name="activity change, negative = inhibition" result="0.24% [at 11.6 µM] (inactive)"
compound=CC(C)CC(=O)OC[C@H]1O[C@@](COC(=O)CC(C)C)(O[C@H]2O[C@H](CO)[C@@H](O)[C@H](O)[C@H]2OC(=O)CC(C)C)[C@@H](OC(=O)CC(C)C)[C@@H]1O system_name="Luciferin 4-monooxygenase (Photinus pyralis)" readout_name="activity change, negative = inhibition" result=inactive

For the compound shown here, CN(C)c1cccc(-c2c3c(=O)n(-c4ccccc4Cl)[nH]c3cc(=O)n2C)c1 , give the reported activity change, negative = inhibition.
inactive

For the compound shown here, COc1cc(/C=C/C(=O)OC(C)(C)C(OC2OC(CO)C(O)C(O)C2O)C(=O)OCc2ccc(OC3OC(CO)C(O)C(O)C3O)cc2)ccc1O (centres undefined) , give the reported activity change, negative = inhibition.
inactive

For the compound shown here, C=CCc1ccc(O[C@@H]2O[C@H](CO[C@@H]3O[C@@H](C)[C@H](O)[C@@H](O)[C@H]3O)[C@@H](O)[C@H](O)[C@H]2O)cc1 , give the reported activity change, negative = inhibition.
inactive

For the compound shown here, C=C1C(O[C@@H]2O[C@H](CO)[C@@H](O)[C@H](O)[C@@H]2O)CC2C(C)(C)C(O)CCC2(C)C1CC/C(C)=C\CO (some centres undefined) , give the reported activity change, negative = inhibition.
inactive

For the compound shown here, CC(=O)O[C@@H]1[C@H]2[C@@H](OC(=O)c3ccccc3)[C@@H](C)C[C@]2(O)[C@H](OC(C)=O)[C@@]2(C)[C@@H]3CC(C)(C)C(=O)[C@]3(OC(C)=O)C[C@@]12C , give the reported activity change, negative = inhibition.
inactive

For the compound shown here, C[C@@H]1C[C@H]2[C@@H]3CCC4=CC(=O)C=C[C@]4(C)[C@@]3(F)[C@@H](O)C[C@]2(C)[C@@]1(O)C(=O)COP(=O)(O)O , give the reported activity change, negative = inhibition.
inactive

For the compound shown here, CC(=O)OC1C(O)C(C)=C(CCC(C)CC(=O)O)C2(C)CCCC(C)(C)C12 (centres undefined) , give the reported activity change, negative = inhibition.
inactive

For the compound shown here, C[C@]1(O)CC[C@@H]2C(C(=O)O)=CO[C@@H](O[C@@H]3O[C@H](COC(=O)c4ccc(O)cc4)[C@@H](O)[C@H](O)[C@H]3O)[C@@H]21 , give the reported activity change, negative = inhibition.
inactive

For the compound shown here, COc1cc(N2CCC(O)CC2)ccc1Nc1cc(Nc2ccccc2S(=O)(=O)C(C)C)c2cc[nH]c2n1 , give the reported activity change, negative = inhibition.
inactive

For the compound shown here, O=C1NCc2nc3ccccc3c(=O)n2C1Cc1c[nH]c2ccccc12 (centres undefined) , give the reported activity change, negative = inhibition.
inactive

For the compound shown here, COC(=O)C1C(c2ccc(O)cc2)C(C(=O)OC)C1c1ccc(O)cc1 (centres undefined) , give the reported activity change, negative = inhibition.
inactive

For the compound shown here, C=C1CC[C@@H]2[C@](C)(CO[C@@H]3O[C@H](CO)[C@@H](O)[C@H](O)[C@H]3O)CCC[C@@]2(C)[C@@H]1CCC1=CCOC1=O , give the reported activity change, negative = inhibition.
inactive

For the compound shown here, COc1c2c(c(C)c3c1C(=O)OC3)OC1(C)CC(O)C3(O)C(C)(C)OC(=O)CCC3(C)C1C2 (centres undefined) , give the reported activity change, negative = inhibition.
inactive

For the compound shown here, COc1cc(/C=C/c2cc(O)cc(O[C@@H]3O[C@H](CO)[C@@H](O)[C@H](O)[C@H]3O)c2)ccc1O , give the reported activity change, negative = inhibition.
inactive

* * *

Test system: CP238
assay_info: qHTS profiling for inhibitors of Plasmodium falciparum proliferation (AID 504749); further: nearly all actives have a fitted effect of over 60% in size
assay_setup: P. falciparum in erythrocytes, SYBR Green DNA, 72 h; series mostly up to 28.7 µM
Records with an inconclusive call do not appear. Activity calls are given as the source filed them. The call rests on the fitted dose curve; in most records, active means well fitted inhibition curve with a large enough effect; inconclusive means small, poorly fitted or top-dose-only effect; inactive means flat fitted curve, though single readings scatter.
Give one outcome, nothing more. List: true for active, false for inactive

# fetch the recorded call for CCCCC(C)(O)C/C=C/[C@H]1[C@H](O)CC(=O)[C@@H]1CCCCCCC(=O)OC (stereo not given in full) here
false

# fetch the recorded call for CCOC(=O)C1=CC2(CC)CCCN3CCc4c(n1c1ccccc41)C32 (stereo not given) here
true

# fetch the recorded call for CCCCC(=O)O[C@]1(C(=O)CO)[C@H](C)C[C@H]2[C@@H]3CCC4=CC(=O)C=C[C@]4(C)[C@@]3(F)[C@@H](O)C[C@@]21C here
false

# fetch the recorded call for CCOC(C)=O here
false

# fetch the recorded call for COC(=O)[C@H]1[C@H]2C[C@@H]3c4[nH]c5ccccc5c4CCN3C[C@H]2C[C@@H](OC(=O)c2cc(OC)c(OC)c(OC)c2)[C@@H]1OC here
true

* * *

System: CP315
assay_info: qHTS profiling for inhibitors of Plasmodium falciparum proliferation (AID 504749); further: nearly all actives have a fitted effect of over 60% in size
assay_setup: P. falciparum in erythrocytes, SYBR Green DNA, 72 h; series mostly up to 28.7 µM
Records with an inconclusive call do not appear. Activity calls are given as the source filed them. Calls come from the whole dose curve; as a rule, active = well fitted inhibition curve with a large enough effect; inconclusive = small, poorly fitted or top-dose-only effect; inactive = flat fitted curve, though single readings scatter.
Give one outcome, nothing more. List: YES (active), NO (inactive)

compound="CCCC(=O)Nc1ncnc2c1ncn2C1OC2COP(=O)(O)OC2C1OC(=O)CCC (stereo not drawn)" group_label=NO
compound=CCN(CC)CCOc1ccc(-c2nc3cc(Cl)ccc3s2)cc1 group_label=NO
compound=CCOC(=O)C1=C(C)NC(C)=C(C(=O)OCC)C1c1ccccc1C=CC(=O)OC(C)(C)C group_label=YES
compound=CCNC(=O)[C@@H]1CCCN1C(=O)[C@H](CCCN=C(N)N)NC(=O)[C@H](CC(C)C)NC(=O)[C@@H](Cc1c[nH]c2ccccc12)NC(=O)[C@H](Cc1ccc(O)cc1)NC(=O)[C@H](CO)NC(=O)[C@H](Cc1c[nH]c2ccccc12)NC(=O)[C@H](Cc1cnc[nH]1)NC(=O)[C@@H]1CCC(=O)N1 group_label=YES
compound=CO[C@H]1C[C@@H]2CC[C@@H](C)[C@@](O)(O2)C(=O)C(=O)N2CCCC[C@H]2C(=O)O[C@H]([C@H](C)C[C@@H]2CC[C@@H](OCCO)[C@H](OC)C2)CC(=O)[C@H](C)/C=C(\C)[C@@H](O)[C@@H](OC)C(=O)[C@H](C)C[C@H](C)/C=C/C=C/C=C/1C group_label=YES

# fetch the recorded call for CCCCC/C=C\C/C=C\CCCCCCCC(=O)O here
NO

# fetch the recorded call for CCCCCCCC(=O)O here
NO

# fetch the recorded call for IC(I)I here
NO
